# methodDescription: Cell Viability - LYMP1-002 - Assay at 24 hr (AID 993)
# experimentalConditions: LYMP1-002 lymphoblastoid cells viability; series mostly up to 92.2 µM
Activity calls are given as the source filed them. Calls follow the shape of the dose curve; as a rule, active = well fitted cell-killing curve with a large enough effect; inconclusive = small, poorly fitted or top-dose-only effect; inactive = flat fitted curve, though single readings scatter.
Possible outcomes: active, inactive

>  <molecule>
Oc1ccc(Cl)cc1

>  <classLabel>
inactive

$$$$
>  <molecule>
C[C@]1(O)CC[C@H]2[C@@H]3CCC4=CC(=O)CC[C@]4(C)[C@@]3(F)[C@@H](O)C[C@@]21C

>  <classLabel>
inactive

$$$$
>  <molecule>
Clc1ccc(C(c2ccc(Cl)cc2)C(Cl)(Cl)Cl)cc1

>  <classLabel>
active

$$$$
>  <molecule>
C[C@]12CCC(=O)C=C1CC[C@@H]1[C@@H]2CC[C@@]2(C)[C@H]1CC[C@]2(C)O

>  <classLabel>
inactive

$$$$
>  <molecule>
Nc1ccccc1C(=O)O

>  <classLabel>
inactive

$$$$
>  <molecule>
Nc1ccccc1

>  <classLabel>
inactive

$$$$
>  <molecule>
CCOC(=O)CC(SP(=S)(OC)OC)C(=O)OCC (stereo not drawn)

>  <classLabel>
inactive

$$$$
>  <molecule>
CCC(C)(C)c1ccc(O)cc1

>  <classLabel>
inactive

$$$$

---

# experimentalConditions: Ebola virus entry assay, reporter ratio channel; Channel type: primary unless noted
Activity calls are given as the source filed them. How the calls were made is not given here.

>  <recordSmiles>
Cc1cc(CCCOc2c(C)cc(-c3noc(C(F)(F)F)n3)cc2C)on1

>  <outcome>
inactive

$$$$
>  <recordSmiles>
O=C(O)c1ccccc1-c1ccc(C(F)(F)F)cc1

>  <outcome>
inactive

$$$$
>  <recordSmiles>
CCCCCCCCCCCCCCCCN

>  <outcome>
inactive

$$$$
>  <recordSmiles>
CCCCCCCCCCCCCCCC(=O)NCCO

>  <outcome>
inactive

$$$$
>  <recordSmiles>
O=C(O)c1ccc(=O)[nH]c1

>  <outcome>
inactive

$$$$
>  <recordSmiles>
O=C1CC(c2ccc(Cl)cc2)CC(=O)N1

>  <outcome>
inactive

$$$$
>  <recordSmiles>
NCC(=O)CCC(=O)O

>  <outcome>
inactive

$$$$

---

# Test system: CP265
# methodDescription: qHTS profiling for inhibitors of Plasmodium falciparum proliferation (AID 504749); also: nearly all actives have a fitted effect of over 60% in size
# experimentalConditions: P. falciparum in erythrocytes, SYBR Green DNA, 72 h; series mostly up to 28.7 µM
Inconclusive results are not listed. Activity calls are given as the source filed them. Calls follow the shape of the dose curve; as a rule, active = well fitted inhibition curve with a large enough effect; inconclusive = small, poorly fitted or top-dose-only effect; inactive = flat fitted curve, though single readings scatter.
Possible outcomes: active, inactive

>  <compound>
C[C@]12CCC(=O)C=C1CC[C@@H]1[C@@H]2CC[C@]2(C)C(=O)CC[C@@H]12

>  <experimentalTarget>
CP265

>  <classLabel>
inactive

$$$$
>  <compound>
C[C@](O)(CS(=O)(=O)c1ccc(F)cc1)C(=O)Nc1ccc(C#N)c(C(F)(F)F)c1

>  <experimentalTarget>
CP265

>  <classLabel>
inactive

$$$$
>  <compound>
C[C@]12CC[C@@H]3c4ccc(OC(=O)N(CCCl)CCCl)cc4CC[C@H]3[C@@H]1CC[C@@H]2O

>  <experimentalTarget>
CP265

>  <classLabel>
inactive

$$$$
>  <compound>
Oc1ccc(Cl)cc1

>  <experimentalTarget>
CP265

>  <classLabel>
inactive

$$$$
>  <compound>
O=C1OC(c2ccc(O)c(S(=O)(=O)O)c2)(c2ccc(O)c(S(=O)(=O)O)c2)c2c(Br)c(Br)c(Br)c(Br)c21

>  <experimentalTarget>
CP265

>  <classLabel>
inactive

$$$$
>  <compound>
CN1C(=O)COc2c(C(=O)NC3CN4CCC3CC4)cc(Cl)cc21 (stereo not given)

>  <experimentalTarget>
CP265

>  <classLabel>
inactive

$$$$
>  <compound>
O=c1[nH]oc2c1CCNC2

>  <experimentalTarget>
CP265

>  <classLabel>
inactive

$$$$
>  <compound>
CCC(C)(C)c1ccc(O)cc1

>  <experimentalTarget>
CP265

>  <classLabel>
inactive

$$$$
>  <compound>
C=C(C)[C@H]1CN[C@H](C(=O)O)[C@H]1CC(=O)O

>  <experimentalTarget>
CP265

>  <classLabel>
inactive

$$$$
>  <compound>
CN1C[C@H](C(=O)N[C@]2(C)O[C@@]3(O)[C@@H]4CCCN4C(=O)[C@H](Cc4ccccc4)N3C2=O)C=C2c3cccc4[nH]cc(c34)C[C@H]21

>  <experimentalTarget>
CP265

>  <classLabel>
active

$$$$
>  <compound>
CC(C)NC(C)C

>  <experimentalTarget>
CP265

>  <classLabel>
inactive

$$$$
>  <compound>
NCCc1ccc(O)cc1

>  <experimentalTarget>
CP265

>  <classLabel>
inactive

$$$$
>  <compound>
CC(C)(C)NCC(O)c1ccccc1Cl (stereo not given)

>  <experimentalTarget>
CP265

>  <classLabel>
inactive

$$$$
>  <compound>
CC(C)c1cccc(C(C)C)c1O

>  <experimentalTarget>
CP265

>  <classLabel>
inactive

$$$$
>  <compound>
Nc1nc(N)nc(NC2CC2)n1

>  <experimentalTarget>
CP265

>  <classLabel>
inactive

$$$$
>  <compound>
Clc1cccc(SC2CCNCC2)n1

>  <experimentalTarget>
CP265

>  <classLabel>
inactive

$$$$
>  <compound>
CNC(C)(C)Cc1ccccc1

>  <experimentalTarget>
CP265

>  <classLabel>
inactive

$$$$
>  <compound>
c1ccc2c(c1)sc1ccccc12

>  <experimentalTarget>
CP265

>  <classLabel>
inactive

$$$$
>  <compound>
Cc1nnc2n1-c1ccc(Cl)cc1C(c1ccccc1)=NC2

>  <experimentalTarget>
CP265

>  <classLabel>
inactive

$$$$
>  <compound>
CN1CCC(O)(c2ccc(F)cc2)C(C(=O)c2ccc(F)cc2)C1 (stereo not given)

>  <experimentalTarget>
CP265

>  <classLabel>
inactive

$$$$
>  <compound>
O=C(N/N=C/c1ccc([N+](=O)[O-])o1)c1cc([N+](=O)[O-])cc([N+](=O)[O-])c1O

>  <experimentalTarget>
CP265

>  <classLabel>
active

$$$$
>  <compound>
CN1C(=O)CC(=O)N(c2ccccc2)c2cc(Cl)ccc21

>  <experimentalTarget>
CP265

>  <classLabel>
inactive

$$$$
>  <compound>
COP(=S)(OC)Oc1ccc(S(=O)(=O)N(C)C)cc1

>  <experimentalTarget>
CP265

>  <classLabel>
inactive

$$$$
>  <compound>
O=C1CN=C(c2ccccc2)c2cc([N+](=O)[O-])ccc2N1

>  <experimentalTarget>
CP265

>  <classLabel>
inactive

$$$$
>  <compound>
NC(=O)CS(=O)C(c1ccccc1)c1ccccc1 (stereo not given)

>  <experimentalTarget>
CP265

>  <classLabel>
inactive

$$$$
